test system: serum ALT activity induced by CCl4; assay: Protective effect against acute hepatic damage induced by carbon tetrachloride (serum ALT); type: in vivo; details: Mus musculus; mice, 50 mg/kg oral, 6 h before CCl4 (50 ul/kg oral); ALT 24 h after CCl4; read-out: Inhibitory (%): protective effect against increase of serum ALT activity induced by CCl4
MEASUREMENT TYPE: inhibition in vivo at 50 mg/kg (%)
Only the number, expressed in %, is required.

// returns inhibition in vivo at 50 mg/kg for CC(C)OC(=O)C(C(=O)N1CCOCC1)=C1SC=CS1 with serum ALT activity induced by CCl4; value = 66.5

Record for Cc1cccc(NC(=O)C(C(=O)OC(C)C)=C2SC=CS2)n1 under target or system serum ALT activity induced by CCl4: inhibition in vivo at 50 mg/kg reported as 100

Log: serum ALT activity induced by CCl4, compound CC(C)OC(=O)C(C(=O)Nc1ccnc(O)n1)=C1SC=CS1 , inhibition in vivo at 50 mg/kg = 12.8

The measured inhibition in vivo at 50 mg/kg that CC(C)OC(=O)C(C(=O)Nc1cc[nH]n1)=C1SC=CS1 showed for serum ALT activity induced by CCl4 is 102

// assay serum ALT activity induced by CCl4, entry CCOC(=O)C(C(=O)NC1CCSC1=O)=C1SC=CS1 (stereo not drawn) , inhibition in vivo at 50 mg/kg value = 88.7

Lab note: compound CC(C)OC(=O)C(C(=O)N1CCCC1)=C1SC=CS1 tested on serum ALT activity induced by CCl4; recorded inhibition in vivo at 50 mg/kg was 90.5

###

Experiment: Acute oral toxicity, median lethal dose (LD50)
Settings: mouse, in vivo, male ICR mice, deaths counted for 14 days
Method: Each test compound was suspended in a 0.2% CMC-Na solution in various concentrations to make test suspension. The test suspensions were administered orally to male ICR mice (10 in each group) at various doses. The number of dead mice was counted for 14 days and the value of mediam lethal dose (LD50, g/kg) was calculated by the Hitchifield-Wilcoxon method.
MEASUREMENT TYPE: LD50 at 336 h (mg/kg)
Please respond with the number in mg/kg and leave the unit unwritten.

Below, each entry is followed by its recorded LD50 at 336 h result.
CC(C)OC(=O)C(C(=O)Nc1ncccn1)=C1SC=CS1 : 3200
CC(C)OC(=O)C(C(=O)Nc1ccccc1C(=O)O)=C1SC=CS1 : 1200

Documented LD50 at 336 h of CCOC(=O)C(C(=O)Nc1nccs1)=C1SC=CS1 : 2500

Record CC(C)NC(=O)C(C(=O)OC(C)C)=C1SC=CS1 , field LD50 at 336 h: 2600

###

Assay: Acute oral toxicity, median lethal dose (LD50)
Conditions: mouse, in vivo, male ICR mice, deaths counted for 14 days
Method: Each test compound was suspended in a 0.2% CMC-Na solution in various concentrations to make test suspension. The test suspensions were administered orally to male ICR mice (10 in each group) at various doses. The number of dead mice was counted for 14 days and the value of mediam lethal dose (LD50, g/kg) was calculated by the Hitchifield-Wilcoxon method.
MEASUREMENT TYPE: LD50 at 336 h

Record CC(C)OC(=O)C(C(=O)Nc1ccccc1F)=C1SC=CS1 , field LD50 at 336 h: > 5000 mg/kg

Summary for this molecule, CC(C)OC(=O)C(C(=O)NC1=NCCS1)=C1SC=CS1 [22(e)] : LD50 at 336 h is > 5000 mg/kg

Entry under test: CCOC(=O)C(C(=O)NC1CCSC1=O)=C1SC=CS1 (centres unmarked) . Its LD50 at 336 h was > 4000 mg/kg

Summary for this molecule, CC(C)OC(=O)C(C(=O)Nc1cccc(O)c1)=C1SC=CS1 : LD50 at 336 h is > 5000 mg/kg

Field LD50 at 336 h (entry CC(C)OC(=O)C(C(=O)Nc1ccncc1)=C1SC=CS1 ) reads 1100 mg/kg
